target: MBR (mitochondrial benzodiazepine receptor) (Rattus norvegicus); experiment: Receptor binding experiment: [3H]PK11195 competition binding, rat brain membrane preparation; conditions: [3H]PK11195 0.5 or 1 nmol/L, 1 hour at room temperature, calculated by Cheng and Prusoff formula from KD and IC50, read-out: Ki value (inhibition constant)
Endpoint label: pKi
In simple prose, pKi is minus the logarithm base ten of a concentration in moles per litre.

input: Dear colleague, I am looking for the recorded pKi of the following compound: `O=C(CCc1ccccc1)Nc1c2c(nn1-c1ccc(Cl)cc1)CSC2`
output: 7.00
